system: Plasmodium falciparum clones 3d7, HB3, Dd2 and 7G8; test: In vitro IC50, growth of Plasmodium falciparum clones on human red blood cells (SybrGreen DNA fluorescence); type: cell-based; conditions: read-out: IC50 artesunate alone; Clone 7G8; 72 hours
property.label: IC50
Respond with a number, then the unit of measure.

Would you mind telling me what IC50 value was observed for C[C@H]1[C@H](OC(=O)CCC(=O)O)O[C@@H]2O[C@@]3(C)CC[C@H]4[C@H](C)CC[C@@H]1[C@@]24OO3 [artesunate] ?
1.25 nM

###

tested on: Plasmodium falciparum clones 3d7, HB3, Dd2 and 7G8; experiment: In vitro IC50, growth of Plasmodium falciparum clones on human red blood cells (SybrGreen DNA fluorescence); format: cell-based; settings: Plasmodium falciparum, Erythrocyte, 72 h, read-out: IC50 eugenol alone, Clone Dd2
property.label: pIC50
Entry type: numeric. Quantity: pIC50, the -log10 of concentration in molar units.

Would you mind telling me what pIC50 value was observed for C=CCc1ccc(O)c(OC)c1 [eugenol] ?
3.18
